Assay System: recombinant human BACE-1 (rhBACE-1) (Homo sapiens)
Construct: expressed as only an extracellular region (amino acid 1-460 residues) of recombinant human β-secretase; His tag (C); purchased R&D systems (Minneapolis, Minn.); host or cells: murine myeloma cell line NS0
Sequence (P56817 22-460 limits assumed): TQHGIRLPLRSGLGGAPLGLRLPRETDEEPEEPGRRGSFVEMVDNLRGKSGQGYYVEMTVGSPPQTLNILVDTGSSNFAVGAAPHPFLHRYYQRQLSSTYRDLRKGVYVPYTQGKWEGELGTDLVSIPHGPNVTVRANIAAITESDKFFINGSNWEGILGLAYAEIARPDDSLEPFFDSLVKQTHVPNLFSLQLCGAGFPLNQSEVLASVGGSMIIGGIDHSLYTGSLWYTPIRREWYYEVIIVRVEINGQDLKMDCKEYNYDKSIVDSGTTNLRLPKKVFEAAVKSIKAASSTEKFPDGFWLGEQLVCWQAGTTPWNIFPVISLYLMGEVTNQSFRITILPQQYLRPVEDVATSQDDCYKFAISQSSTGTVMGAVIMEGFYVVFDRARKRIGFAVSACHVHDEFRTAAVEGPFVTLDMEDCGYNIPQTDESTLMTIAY
Assay Protocol: BACE1 inhibitory activity, reverse phase HPLC quantitation of N-terminal fragment of fluorogenic substrate
Type: biochemical
Condition Summary: 1 μL of inhibitor solution in DMSO (100 μM) in 50 μL reaction; MES buffer pH 5.0; 37° C., 60 minutes
Numbered stars: 1 amine (or outer) side, 2 acyl side, 3 side chain; on linkers, the order of the positions; unused ones are H or OH. Square brackets hold non-standard residues; d marks the D form. Peptide text beside a SMILES is read from it. β3hPhe(2R-OH) = O=C([C@H](O)[C@H](Cc1ccccc1)N[*:1])[*:2]; 2Abz = Nc1ccccc1C(=O)O
Could you label it rule met if measured inhibition at 100 µM (stock) is 90% or higher, and rule not met otherwise?

>>> group_label("CC(C)C[C@H](NC(=O)[C@@H](NC(=O)[C@@H](N)CCC(=O)O)C(C)C)C(=O)N[C@@H](Cc1ccccc1)[C@@H](O)C(=O)N[C@@H](CC(=O)O)C(=O)N[C@@H](C)C(=O)Nc1ccccc1C(=O)O [Example 87] (H-EVL[β3hPhe(2R-OH)]DA[2Abz]-OH)")
"rule not met"
>>> group_label("CC(C)C[C@H](NC(=O)[C@@H](NC(=O)[C@@H](N)CNC(=O)C(=O)O)C(C)C)C(=O)N[C@@H](Cc1ccccc1)[C@@H](O)C(=O)Nc1ccc(C(=O)O)cc1 [Example 68]")
"rule met"
>>> group_label("CC(C)C[C@H](NC(=O)[C@@H](NC(=O)[C@@H](N)CCC(=O)O)C(C)C)C(=O)N[C@@H](Cc1ccccc1)[C@@H](O)C(=O)NC1CCCC(C(=O)O)C1 (some centres unmarked) [Example 155]")
"rule not met"

Incoming: For this compound, is measured inhibition at 100 µM (stock) 90% or higher? COC(=O)c1cccc(C(=O)NC[C@H](N)C(=O)N[C@H](C(=O)N[C@@H](CC(C)C)C(=O)N[C@@H](Cc2ccccc2)[C@@H](O)C(=O)Nc2cccc(C(=O)O)c2)C(C)C)c1 [Example 183]
Outgoing: rule not met

Incoming: For this compound, is measured inhibition at 100 µM (stock) 90% or higher? CC(C)C[C@H](NC(=O)[C@@H](NC(=O)[C@@H](N)CNC(=O)c1ccc(O)cc1O)C(C)C)C(=O)N[C@@H](Cc1ccccc1)[C@@H](O)C(=O)Nc1cccc(C(=O)O)c1 [Example 173]
Outgoing: rule not met

###

Assay System: recombinant human BACE-1 (rhBACE-1) (Homo sapiens)
Construct: expressed as only an extracellular region (amino acid 1-460 residues) of recombinant human β-secretase; His tag (C); purchased R&D systems (Minneapolis, Minn.); host or cells: murine myeloma cell line NS0
Assay Protocol: BACE1 inhibitory activity, reverse phase HPLC quantitation of N-terminal fragment of fluorogenic substrate
Type: biochemical
Condition Summary: 1 μL of inhibitor solution in DMSO (100 μM) in 50 μL reaction; MES buffer pH 5.0; 37° C., 60 minutes
Numbered stars: 1 amine (or outer) side, 2 acyl side, 3 side chain; on linkers, the order of the positions; unused ones are H or OH. Square brackets hold non-standard residues; d marks the D form. Peptide text beside a SMILES is read from it. * marks the point of attachment. β3hPhe(2R-OH) = O=C([C@H](O)[C@H](Cc1ccccc1)N[*:1])[*:2]; X1 = O=C(c1ccc(O)c(O)c1)*; Dap = NC[C@H](N)C(=O)O
Here, each record is paired with measured inhibition at 100 µM (stock) data.
Dear colleague, please return just the value in %, with no unit written.

# example entries with known answers
>>> reported_value("CC(C)[C@H](NC(=O)[C@@H](N)CNC(=O)c1[nH]c(=O)[nH]c(=O)c1F)C(=O)N[C@@H](CC1CCCCC1)C(=O)N[C@@H](Cc1ccccc1)[C@@H](O)C(=O)Nc1cccc(-c2nnn[nH]2)c1 [Example 189]")
100
>>> reported_value("COC(=O)c1cc(N)cc(C(=O)NC[C@H](N)C(=O)N[C@H](C(=O)N[C@@H](CC(C)C)C(=O)N[C@@H](Cc2ccccc2)[C@@H](O)C(=O)Nc2cccc(C(=O)O)c2)C(C)C)c1 [Example 181]")
82.5
>>> reported_value("CC(C)C[C@H](NC(=O)[C@@H](NC(=O)[C@@H](N)CNC(=O)c1cc(O)ccc1O)C(C)C)C(=O)N[C@@H](Cc1ccccc1)[C@@H](O)C(=O)Nc1cccc(-c2nnn[nH]2)c1 [Example 190]")
99.3

From here, focus on the item given below.
inhibition at 100 µM (stock) for CC(C)C[C@H](NC(=O)[C@@H](NC(=O)[C@@H](N)CNC(=O)c1ccc(O)c(O)c1)C(C)C)C(=O)N[C@@H](Cc1ccccc1)[C@@H](O)C(=O)N[C@@H](CC(=O)O)C(=O)N[C@@H](C)C(=O)N[C@@H](CCC(=O)O)C(=O)O [Example 133] (H-[Dap](X1)VL[β3hPhe(2R-OH)]DAE-OH) is 71.5

###

Here, each record is paired with measured inhibition at 2 µM data.
Assay System: recombinant human BACE-1 (rhBACE-1) (Homo sapiens)
Construct: expressed as only an extracellular region (amino acid 1-460 residues) of recombinant human β-secretase; His tag (C); purchased R&D systems (Minneapolis, Minn.); host or cells: murine myeloma cell line NS0
Assay Protocol: BACE1 inhibitory activity, reverse phase HPLC quantitation of N-terminal fragment of fluorogenic substrate
Format: biochemical
Condition Summary: 1 μL of inhibitor solution in DMSO (100 μM) in 50 μL reaction; MES buffer pH 5.0; 37° C., 60 minutes
Numbered stars: 1 amine (or outer) side, 2 acyl side, 3 side chain; on linkers, the order of the positions; unused ones are H or OH. Square brackets hold non-standard residues; d marks the D form. Peptide text beside a SMILES is read from it. * marks the point of attachment. β3hPhe(2R-OH) = O=C([C@H](O)[C@H](Cc1ccccc1)N[*:1])[*:2]; Tetrazole5carbonyl = O=C(c1nn[nH]n1)*; Dap = NC[C@H](N)C(=O)O
Dear colleague, please return just the value in %, with no unit written.

>>> reported_value("CC(C)C[C@H](NC(=O)[C@@H](NC(=O)[C@@H](N)CNC(=O)C(=O)O)C(C)C)C(=O)N[C@@H](Cc1ccccc1)[C@@H](O)C(=O)Nc1cccc(C(=O)O)c1")
98.4

inhibition at 2 µM for CC(C)C[C@H](NC(=O)[C@@H](NC(=O)[C@@H](N)CNC(=O)c1nnn[nH]1)C(C)C)C(=O)N[C@@H](Cc1ccccc1)[C@@H](O)C(=O)N[C@@H](CC(=O)O)C(=O)N[C@@H](C)C(=O)N[C@@H](CCC(=O)O)C(=O)O [Example 73] (H-[Dap](Tetrazole5carbonyl)VL[β3hPhe(2R-OH)]DAE-OH) is 93

###

Assay System: recombinant human BACE-1 (rhBACE-1) (Homo sapiens)
Construct: expressed as only an extracellular region (amino acid 1-460 residues) of recombinant human β-secretase; His tag (C); purchased R&D systems (Minneapolis, Minn.); host or cells: murine myeloma cell line NS0
Assay Protocol: BACE1 inhibitory activity, reverse phase HPLC quantitation of N-terminal fragment of fluorogenic substrate
Assay type: biochemical
Condition Summary: 1 μL of inhibitor solution in DMSO (100 μM) in 50 μL reaction; MES buffer pH 5.0; 37° C., 60 minutes
Numbered stars: 1 amine (or outer) side, 2 acyl side, 3 side chain; on linkers, the order of the positions; unused ones are H or OH. Square brackets hold non-standard residues; d marks the D form. Peptide text beside a SMILES is read from it. β3hPhe(2R-OH) = O=C([C@H](O)[C@H](Cc1ccccc1)N[*:1])[*:2]; 4Amb = NCc1ccc(C(=O)O)cc1
Could you label it Met if measured inhibition at 2 µM is 70% or higher, and Not met otherwise?

>>> group_label("CC(C)C[C@H](NC(=O)[C@@H](NC(=O)[C@@H](N)CNC(=O)c1cccc(O)c1O)C(C)C)C(=O)N[C@@H](Cc1ccccc1)[C@@H](O)C(=O)Nc1cccc(C(=O)O)c1")
"Met"
>>> group_label("CCOC(=O)c1cccc(NC(=O)c2cccc(NC(=O)[C@H](O)[C@H](Cc3ccccc3)NC(=O)[C@H](CC(C)C)NC(=O)[C@@H](NC(=O)[C@@H](N)CCC(=O)O)C(C)C)c2)c1")
"Met"
>>> group_label("CC(C)C[C@H](NC(=O)[C@@H](NC(=O)[C@@H](N)CNC(=O)c1cc(N)cc(C(=O)O)c1)C(C)C)C(=O)N[C@@H](CSc1ccccc1)[C@@H](O)C(=O)Nc1cccc(C(=O)O)c1")
"Met"
>>> group_label("CC(C)C[C@H](NC(=O)[C@@H](NC(=O)[C@@H](N)CNC(=O)c1cc(N)cc(C(=O)O)c1)C(C)C)C(=O)N[C@@H](Cc1ccccc1)[C@@H](O)C(=O)Nc1cccc(C(N)=O)c1")
"Met"
>>> group_label("CC(C)C[C@H](NC(=O)[C@@H](NC(=O)[C@@H](N)CCC(=O)O)c1ccccc1)C(=O)N[C@@H](Cc1ccccc1)[C@@H](O)C(=O)Nc1cccc(C(=O)O)c1")
"Not met"
>>> group_label("Cc1cccc(C(=O)NC[C@H](N)C(=O)N[C@H](C(=O)N[C@@H](CC(C)C)C(=O)N[C@@H](Cc2ccccc2)[C@@H](O)C(=O)Nc2cccc(C(=O)O)c2)C(C)C)c1O")
"Not met"

Incoming: For this molecule, is measured inhibition at 2 µM 70% or higher? CC(C)C[C@H](NC(=O)[C@@H](NC(=O)[C@@H](N)CCC(=O)O)C(C)C)C(=O)N[C@@H](Cc1ccccc1)[C@@H](O)C(=O)N[C@@H](CC(=O)O)C(=O)NCc1ccc(C(=O)O)cc1 [Example 103] (H-EVL[β3hPhe(2R-OH)]D[4Amb]-OH)
Outgoing: Not met
